Attribute: Plant response rating, Giant foxtail
System: giant foxtail
Test: Test B pre/postemergence giant foxtail
Assay type: in vivo, Setaria faberii
Conditions: Preemergence, Rate 250 g/ha; scale of 0 to 10 where 0 is no effect and 10 is complete control
Procedure: […] At the same time, these crop and weed species were also treated with postemergence applications of test chemicals formulated in the same manner. […] Treated plants and controls were maintained in a greenhouse for twelve to sixteen days, after which all species were compared to controls and visually evaluated. […]
No unit in the answer, only the number.

Check out these entries, answers already filled in.
CC(C)N(C(=O)n1oc(=O)n(C2CCCCC2)c1=O)c1ccc(F)cc1 [Compound 110]	10
CC(C)Oc1cc(-n2c(=O)on(C(=O)N(c3ccc(F)cc3)C(C)C)c2=O)c(Cl)cc1Cl [Compound 43]	0
CCN(CC)C(=O)n1oc(=O)n(-c2ccc(OC)cc2)c1=O [Compound 1]	8

Query molecule follows.
Per the records, this molecule ( CC(C)N(C(=O)n1oc(=O)n(Cc2cccs2)c1=O)c1ccccc1 [Compound 103] ) has Plant response rating, Giant foxtail equal to 9

###

Documented Sugarbeets plant response rating across a set of compounds
system: sugar beet; experiment: Test B pre/postemergence sugar beet; assay type: in vivo, Beta vulgaris; details: Preemergence, Rate 500 g/ha; scale 0 to 10, 0 is no effect, 10 is complete control
The reply should be a number, written without any unit.

Here is how some compounds turned out for Sugarbeets plant response rating.
CC(C)N(C(=O)n1oc(=O)n(C(C)CCl)c1=O)c1ccc(F)cc1F (stereo not shown) [Compound 408]	8
CC(C)C(=O)Cn1c(=O)on(C(=O)N(c2ccc(Cl)cc2)C(C)C)c1=O [Compound 487]	0
Cc1nc(Cl)sc1C(C)n1c(=O)on(C(=O)N(c2ccc(Cl)cc2)C(C)C)c1=O (stereo not shown) [Compound 406]	0

The recorded Sugarbeets plant response rating for CC(C)N(C(=O)n1oc(=O)n(C2CCCCCC2)c1=O)C1=CCCCC1 [Compound 428] is 0

###

tested on: rape; experiment: Test B pre/postemergence rape; format: in vivo, Brassica napus; conditions: Rate 500 g/ha, Postemergence; scale 0 to 10, 0 no effect, 10 complete control
Rule: yes for Rape plant response rating not less than 4, no for anything less.

# example entries with known answers
CC(C)N(C(=O)n1oc(=O)n(CC2(C)COC2)c1=O)c1ccc(F)cc1	yes
Cc1ccccc1-n1c(=O)on(C(=O)N(c2ccc(F)cc2)C(C)C2CC2)c1=O (centres unmarked)	no
CCCCCC#CCn1c(=O)on(C(=O)N(c2ccc(F)cc2)C(C)C)c1=O	no
CC(C)N(C(=O)n1oc(=O)n(C(C)C(=O)c2ccccc2)c1=O)c1ccc(F)cc1 (centres unmarked)	no
CC(C)N(C(=O)n1oc(=O)n(C2CCCCC2C(F)(F)F)c1=O)c1ccc(F)cc1 (centres unmarked)	yes
C=CCn1c(=O)on(C(=O)N(c2ccccc2)C(C)C)c1=O	yes

(Q) Hello, I need to know if `CCN(C(=O)n1oc(=O)n(-c2c(C)cc(C)cc2C)c1=O)C1CCCCC1` has measured Rape plant response rating not below 4. Thanks!
(A) no

###

test system: velvetleaf; experiment: Test B pre/postemergence velvetleaf; format: in vivo, Abutilon theophrasti; details: Preemergence, Rate 62 g/ha; scale of 0 to 10 where 0 is no effect and 10 is complete control
assay.metric: Velvetleaf plant response rating
Response field accepts a number only; no unit should be typed.

CC(C)N(C(=O)n1oc(=O)n(C2CC2)c1=O)c1ccc(Cl)cc1 [Compound 241]	2

// sample CC(C)N(C(=O)n1oc(=O)n(CCC(F)=C(F)F)c1=O)c1ccc(F)cc1 [Compound 218] , its Velvetleaf plant response rating was 0

// recorded Velvetleaf plant response rating for CCN(CC)C(=O)n1oc(=O)n(C2CC2)c1=O [Compound 297] : 0

Quick note, Velvetleaf plant response rating for Cc1cccc(C)c1-n1c(=O)on(C(=O)N(c2ccc(Cl)cc2Cl)C2CCC2)c1=O [Compound 318] landed at 0

Record CC(C)N(C(=O)n1oc(=O)n(C2CC3CCC2C3)c1=O)c1ccc(F)cc1F (centres unmarked) [Compound 326] , field Velvetleaf plant response rating: 0
